# Target: UniProt P06733
# Sequence (P06733 whole entry): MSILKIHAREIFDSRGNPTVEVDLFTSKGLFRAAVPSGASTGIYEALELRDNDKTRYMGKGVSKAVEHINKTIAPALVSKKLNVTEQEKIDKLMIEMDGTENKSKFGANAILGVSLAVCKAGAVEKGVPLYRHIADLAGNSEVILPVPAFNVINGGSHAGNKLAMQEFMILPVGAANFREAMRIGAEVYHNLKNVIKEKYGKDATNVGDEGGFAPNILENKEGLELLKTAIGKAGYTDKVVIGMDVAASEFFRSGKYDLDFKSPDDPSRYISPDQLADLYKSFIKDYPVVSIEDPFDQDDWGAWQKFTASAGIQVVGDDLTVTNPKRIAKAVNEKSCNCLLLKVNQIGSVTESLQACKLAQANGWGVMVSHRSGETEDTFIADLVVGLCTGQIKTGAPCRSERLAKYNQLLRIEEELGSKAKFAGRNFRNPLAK
We begin with a simple list: items and their reported IC50.
Number in nM, nothing else.

{"Compound": "O=C1[C@@H](P(=O)(O)O)C[C@H](O)N1O", "Obs value": 37.9}

Now for a further compound.
Query: GET /values?readout=IC50&item= O=C(CP(=O)(O)O)NO [phosphonoacetohydroxamate (PhAH)]
Response: 53.2

----------
# Target: Gamma-enolase (Homo sapiens, UniProt P09104)
# Sequence (P09104 whole entry): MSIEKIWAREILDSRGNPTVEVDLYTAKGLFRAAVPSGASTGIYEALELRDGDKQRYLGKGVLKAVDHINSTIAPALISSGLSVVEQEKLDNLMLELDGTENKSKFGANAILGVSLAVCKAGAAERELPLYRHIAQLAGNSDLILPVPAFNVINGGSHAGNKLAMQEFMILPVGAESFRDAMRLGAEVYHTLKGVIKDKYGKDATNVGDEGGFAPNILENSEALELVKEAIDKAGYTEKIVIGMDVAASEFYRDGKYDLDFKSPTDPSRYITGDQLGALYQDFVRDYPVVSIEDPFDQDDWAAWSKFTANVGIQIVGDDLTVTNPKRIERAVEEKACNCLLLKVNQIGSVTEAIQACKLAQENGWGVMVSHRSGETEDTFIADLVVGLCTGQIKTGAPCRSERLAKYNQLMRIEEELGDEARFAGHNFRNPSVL
Measured parameter: IC50 (nM)
Number in nM, nothing else.

{"Compound": "O=C(CP(=O)(O)O)NO [phosphonoacetohydroxamate (PhAH)]", "Target": "Gamma-enolase (Homo sapiens, UniProt P09104)", "IC50 [nM]": 62.3}

Now for a further compound.
Query: GET /values?readout=IC50&item= O=C1[C@@H](P(=O)(O)O)C[C@H](O)N1O [SF2312]
Response: 42.5
